Origin of values: PubChem BioAssay (NCI)

System: HT29 colon
Assay: NCI tumour cell line growth inhibition, 48 h
Please note: class 1 applies when TGI is 10 µM or greater, and class 0 applies otherwise.

[[record]]
molecule = "Cc1ccc(C2COc3cc(O)c(O)cc3C2)cc1 (stereo not given)"
label = "class 1"

[[record]]
molecule = "Cc1ccc(C(=O)/C(=C\\c2ccc([N+](=O)[O-])cc2)S(=O)Cc2ccc(Cl)cc2)cc1 (stereo not given)"
label = "class 0"

[[record]]
molecule = "COC(=O)c1cc2c3ccccc3[nH]c2c2sccc12"
label = "class 1"

[[record]]
molecule = "OCCNc1nc(Nc2ccc(Cl)c(Cl)c2)nc2ccccc12"
label = "class 1"

[[record]]
molecule = "COc1cc(-c2csc(NC(=O)Nc3ccc(C(F)(F)F)cc3)n2)cc(OC)c1OC"
label = "class 0"


(Q) Identify whether the reported TGI of the following molecule is 10 µM or greater: `CN(CC(=O)Nc1nc2ccccc2[nH]1)S(=O)(=O)c1ccc(Cl)cc1`
(A) class 1

(Q) Same read-out for CCCCNC(=O)C1C2CCC(O2)C1C(=O)O (stereo not given) ?
(A) class 1

(Q) Moving on to the next molecule: `O=C(O/N=C1/CCC/C1=C\c1ccccc1)c1ccc(Cl)c(Cl)c1`
(A) class 1

(Q) Try this molecule too: `N#C/C(=C\c1ccc(Br)cc1)n1nnc2cc(Cl)c(Cl)cc21`
(A) class 0

(Q) Same for ONC1=Nc2ccccc2C(=S)N2CSCC12 (stereo not given)
(A) class 1
